system: PPARa:RXRa (NR concentration 270 nM, RXRa partner concentration 90 nM); experiment: PBM binding z-score (relative to random genomic background probes); higher = stronger binding; sequences stand for … in GC…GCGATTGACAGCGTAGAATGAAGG
Use 1 as the dividing line for PBM binding z-score, with the line itself on the 1 (yes) side and lower values as 0 (no).

Reference set, count: 3
ACAACGAGGGCACGCTGAGTTGATAGCAGAGTAG	1 (yes)
TCGAGTGGGTTACCAATGGGGCATTCAGCTTTCT	0 (no)
GCAGACAGGTGAAACGAAGGTAACTCAGGGTGGC	0 (no)

// query Hello, I need to know if `GGAACGAGGGCACAGTTGATAGCATCTGTCGACG` has measured PBM binding z-score not below 1. Thanks!
// result 1 (yes)

// query hey, is PBM binding z-score for this one >= 1? `GGAACGAGGGCAAGATGATAGCAGAGTTTGATGG`
// result 1 (yes)

// query Is PBM binding z-score at least 1? Consider `TCATATAGGTACTACAGGTGAAAGTCGGCATCTA`
// result 1 (yes)

// query Given the entry `CGTCCAAGATCAGCAGGTCAGTGAAAGCGACGTG` , answer whether its PBM binding z-score meets or surpasses 1.
// result 0 (no)

// query Does `GCAGACAGGTGAAACGCACGTAACTCAGGGTGGC` have a reported PBM binding z-score of at least 1?
// result 0 (no)
